# TESTED ON: CLC-0 E166Q mutant (Torpedo marmorata, UniProt P21564, C212S/E166Q)
# Format: cell-based
# EXPERIMENTAL SETUP: read-out: Apparent affinity (K1/2); −140 mV
QUANTITY KIND: IC50 (mM)
Express your answer in mM, writing the number without its unit.

In [3]: df
Out[3]:
                                   molecule  endpoint_unit  result_number
0  O=C(O)COc1ccc(Cl)cc1 [CPA, p-chlorophenoxy acetate]             mM           4.71

Now, please, on to the next molecule.
// query Lab note: need IC50 for CCCCCCCC(=O)O [octanoate] on CLC-0 E166Q mutant (Torpedo marmorata, UniProt P21564, C212S/E166Q), anyone have it?
// result 1.45

====

# TESTED ON: CLC-0 E166C/E127Q mutant (E127Q/K519) (Torpedo marmorata, UniProt P21564, C212S/E127Q/E166C)
# Format: cell-based
# EXPERIMENTAL SETUP: read-out: Apparent affinity (K1/2); −80 mV
QUANTITY KIND: IC50 (µM)
Dear colleague, please return just the value in µM, with no unit written.

// query Look at this compound and give its reported IC50. O=C(O)COc1ccc(Cl)cc1 [CPA, p-chlorophenoxy acetate]
// result 113

====

Below is a list of entries, each paired with its recorded IC50 value.
# TESTED ON: CLC-0 E166G mutant (Torpedo marmorata, UniProt P21564, C212S/E166G)
# Assay type: cell-based
# EXPERIMENTAL SETUP: read-out: Apparent affinity (K1/2); −40 mV
Express the result in µM but write the number alone.

>>> df
                                   molecule                                 tested_on  result_number
0  O=C(O)COc1ccc(Cl)cc1 [CPA, p-chlorophenoxy acetate]  CLC-0 E166G mutant (Torpedo marmorata, UniProt P21564, C212S/E166G)            300

Turning now to a further record.
// query Any idea what its IC50 is? The molecule is CCCCCCCC(=O)O [octanoate]
// result 225

====

# TESTED ON: CLC-0 E166Q mutant (Torpedo marmorata, UniProt P21564, C212S/E166Q)
# Sequence (P21564 1-805 E166Q/C212S): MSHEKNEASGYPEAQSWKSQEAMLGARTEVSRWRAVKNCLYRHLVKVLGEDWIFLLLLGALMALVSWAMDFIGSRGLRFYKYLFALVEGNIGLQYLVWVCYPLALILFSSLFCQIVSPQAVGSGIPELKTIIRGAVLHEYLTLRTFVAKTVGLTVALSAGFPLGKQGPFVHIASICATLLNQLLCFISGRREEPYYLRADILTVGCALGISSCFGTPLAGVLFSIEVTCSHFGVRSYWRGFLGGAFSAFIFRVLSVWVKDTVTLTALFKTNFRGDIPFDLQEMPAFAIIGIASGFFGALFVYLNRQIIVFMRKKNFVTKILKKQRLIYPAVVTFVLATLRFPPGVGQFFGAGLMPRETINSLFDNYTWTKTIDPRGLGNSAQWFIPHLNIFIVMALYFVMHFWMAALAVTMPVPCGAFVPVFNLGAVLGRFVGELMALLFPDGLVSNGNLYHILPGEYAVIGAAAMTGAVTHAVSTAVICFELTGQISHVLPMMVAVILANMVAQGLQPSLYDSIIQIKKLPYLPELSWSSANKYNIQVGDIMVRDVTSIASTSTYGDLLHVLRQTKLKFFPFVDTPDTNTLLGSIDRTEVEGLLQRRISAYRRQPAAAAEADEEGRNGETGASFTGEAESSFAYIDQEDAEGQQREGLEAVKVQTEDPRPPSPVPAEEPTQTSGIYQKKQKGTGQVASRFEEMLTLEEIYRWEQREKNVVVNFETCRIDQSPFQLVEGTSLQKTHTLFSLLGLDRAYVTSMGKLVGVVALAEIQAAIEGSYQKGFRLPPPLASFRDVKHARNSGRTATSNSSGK
# Format: cell-based
# EXPERIMENTAL SETUP: read-out: K1/2; Fig. 10 D
QUANTITY KIND: IC50

// query Given the compound CCCCCCCC(=O)O [octanoate] , what is its reported IC50?
// result ~1000 µM

====

# TESTED ON: CLC-0 E166F mutant (Torpedo marmorata, UniProt P21564, C212S/E166F)
# Sequence (P21564 1-805 E166F/C212S): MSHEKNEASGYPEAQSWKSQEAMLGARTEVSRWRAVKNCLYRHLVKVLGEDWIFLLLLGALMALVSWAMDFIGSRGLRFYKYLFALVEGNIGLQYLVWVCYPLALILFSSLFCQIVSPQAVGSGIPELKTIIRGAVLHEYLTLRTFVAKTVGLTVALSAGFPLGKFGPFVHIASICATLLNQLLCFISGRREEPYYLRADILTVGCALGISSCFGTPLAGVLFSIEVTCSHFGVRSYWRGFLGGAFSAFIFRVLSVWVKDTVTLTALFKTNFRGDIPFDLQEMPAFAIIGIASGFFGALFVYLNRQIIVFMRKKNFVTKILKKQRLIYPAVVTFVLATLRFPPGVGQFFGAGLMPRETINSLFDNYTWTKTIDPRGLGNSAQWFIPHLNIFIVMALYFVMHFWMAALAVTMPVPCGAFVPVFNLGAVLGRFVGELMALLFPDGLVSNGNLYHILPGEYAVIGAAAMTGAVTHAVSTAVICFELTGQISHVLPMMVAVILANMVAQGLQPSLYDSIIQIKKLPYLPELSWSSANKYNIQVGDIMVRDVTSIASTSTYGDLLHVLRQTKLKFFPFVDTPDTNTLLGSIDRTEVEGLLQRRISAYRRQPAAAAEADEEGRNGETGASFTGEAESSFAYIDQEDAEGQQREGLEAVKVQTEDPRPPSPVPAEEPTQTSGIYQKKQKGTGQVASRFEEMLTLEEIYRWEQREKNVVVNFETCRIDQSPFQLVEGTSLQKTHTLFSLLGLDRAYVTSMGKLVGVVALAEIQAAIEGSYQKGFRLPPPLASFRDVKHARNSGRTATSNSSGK
# Type: cell-based
# EXPERIMENTAL SETUP: read-out: Apparent affinity (K1/2); −100 mV
# maps each entry to its pIC50
Lab note: report pIC50 as minus log10 of the concentration in molar units, number only.

>>> df
                    molecule  quantity_kind  result_number
0  CCCCCCCC(=O)O [octanoate]          pIC50           3.34

Next molecule, pIC50 to be filled in.
// query Fill blank: measured pIC50 of the molecule O=C(O)COc1ccc(Cl)cc1 [CPA, p-chlorophenoxy acetate] is ____.
// result 3.46

====

# TESTED ON: CLC-0 E166A mutant (Torpedo marmorata, UniProt P21564, C212S/E166A)
# Type: cell-based
# EXPERIMENTAL SETUP: −140 mV (Fig. 10 C)
QUANTITY KIND: K1/2 (range in words)

>>> print(df.to_string())
                          molecule          quantity_kind        result
0        CCCCCCCC(=O)O [octanoate]  K1/2 (range in words)  low μM range
1             CCCC(=O)O [butyrate]  K1/2 (range in words)      mM range
2            CCC(=O)O [propionate]  K1/2 (range in words)      mM range
3  CCCCCCCCCCCC(=O)O [dodecanoate]  K1/2 (range in words)  low μM range

Consider now this further molecule.
// query Look up K1/2 (range in words) for this molecule: CCCCCCCCCC(=O)O [decanoate]
// result low μM range

====

# TESTED ON: CLC-0 E166C/E127Q mutant (E127Q/K519) (Torpedo marmorata, UniProt P21564, C212S/E127Q/E166C)
# Type: cell-based
# EXPERIMENTAL SETUP: read-out: Apparent affinity (K1/2); −60 mV
QUANTITY KIND: IC50 (µM)
Express the result in µM but write the number alone.

// query Which IC50 value is on record for O=C(O)COc1ccc(Cl)cc1 [CPA, p-chlorophenoxy acetate] ?
// result 228

====

# TESTED ON: CLC-0 E166H mutant (Torpedo marmorata, UniProt P21564, C212S/E166H)
# Sequence (P21564 1-805 E166H/C212S): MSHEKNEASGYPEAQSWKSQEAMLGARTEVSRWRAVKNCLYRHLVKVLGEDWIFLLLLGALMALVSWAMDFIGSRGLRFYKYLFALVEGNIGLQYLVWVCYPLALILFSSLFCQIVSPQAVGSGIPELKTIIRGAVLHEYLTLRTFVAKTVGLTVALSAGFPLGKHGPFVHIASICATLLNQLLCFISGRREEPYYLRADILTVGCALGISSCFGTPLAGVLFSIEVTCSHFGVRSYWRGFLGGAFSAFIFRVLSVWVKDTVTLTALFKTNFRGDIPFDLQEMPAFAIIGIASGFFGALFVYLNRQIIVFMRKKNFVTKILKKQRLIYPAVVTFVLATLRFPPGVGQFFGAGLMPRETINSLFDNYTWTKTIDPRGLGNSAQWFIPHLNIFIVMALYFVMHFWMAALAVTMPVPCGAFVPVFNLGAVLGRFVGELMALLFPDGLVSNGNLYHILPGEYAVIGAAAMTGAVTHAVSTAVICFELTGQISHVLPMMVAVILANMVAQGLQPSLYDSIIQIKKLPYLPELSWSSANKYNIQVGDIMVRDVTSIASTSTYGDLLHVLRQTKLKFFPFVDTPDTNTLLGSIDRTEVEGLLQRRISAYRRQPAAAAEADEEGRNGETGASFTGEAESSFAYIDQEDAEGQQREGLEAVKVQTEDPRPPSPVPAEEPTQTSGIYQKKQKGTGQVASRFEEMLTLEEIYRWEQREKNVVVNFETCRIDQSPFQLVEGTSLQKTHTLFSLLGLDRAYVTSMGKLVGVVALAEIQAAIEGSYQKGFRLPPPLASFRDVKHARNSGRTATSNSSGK
# Format: cell-based
# EXPERIMENTAL SETUP: read-out: Apparent affinity (K1/2); −160 mV
Reported IC50 is given for each of the following molecules.
Please state the figure in mM; there is no need to write the unit.

>>> print(df.to_string())
                    molecule                                 tested_on  result_number
0  CCCCCCCC(=O)O [octanoate]  CLC-0 E166H mutant (Torpedo marmorata, UniProt P21564, C212S/E166H)           4.57

// query GET /values?readout=IC50&item= O=C(O)COc1ccc(Cl)cc1 [CPA, p-chlorophenoxy acetate]
// result 0.21
